Test system: embryonic zebrafish
Experiment: Blinded re-screen of top 10 prioritized ChemBridge compounds for developmental phenotypes in embryonic zebrafish
Assay type: in vivo
Conditions: Prediction: Cardiac
Description: Male and female wild-type (AB) fish were housed and embryos bred for screening using standard protocols. […] Resulting scores for each phenotype were used to rank the over 900,000 compounds. Enrichment for compounds with high (>0.95) similarity to known therapeutics (defined using Tanimoto Coefficient of molecular fingerprints) was calculated for each of the 6 ranked lists using gene set enrichment analysis^69. […]

# Compound, Hit (predicted phenotype observed)
data = [
    ("CN(CC1CCN(CCc2ccc(Cl)cc2)CC1)C(=O)c1ccsc1", "Yes"),
    ("CCOC(=O)C1(CCOc2ccccc2)CCN(Cc2cc(OC)cc(OC)c2)CC1", "Yes"),
    ("CCOC(=O)C1(CCOc2ccccc2)CCN(Cc2ccc(OC)cc2)CC1", "No"),
    ("CN(CC1CCN(CCc2ccc(Cl)cc2)CC1)C(=O)C1=CCCCC1", "Yes"),
    ("CCOC(=O)C1(CCOc2ccccc2)CCN(Cc2ccccc2OC)CC1", "No"),
    ("CN(CC1CCN(CCc2ccc(Cl)cc2)CC1)C(=O)c1ccccc1-n1cccn1", "Yes"),
    ("OCCC1CN(Cc2ccc(F)cc2F)CCN1CCCc1ccccc1 (stereo not drawn)", "Yes"),
    ("CN(CC1CCN(CCc2ccc(F)cc2)CC1)C(=O)c1ccsc1", "Yes"),
    ("CN(CC1CCN(CCc2ccc(Cl)cc2)CC1)C(=O)c1cccc(N(C)C)c1", "Yes"),
]

The reported measurements were obtained from patent US12605374B2.
